molecular target: recombinant trimeric HA of H1N1 A/California/04/09 (Influenza A virus A/California/04/2009 (H1N1)); conditions: remark: other sources report otherwise
Measurement kind: kon (M⁻¹ s⁻¹)
Lab book: enter the figure in M⁻¹ s⁻¹, no units written.

**Query** Entry under review: Fab fragment of TCN-530 (5248_H10a) (Fab, V domains shown) VH: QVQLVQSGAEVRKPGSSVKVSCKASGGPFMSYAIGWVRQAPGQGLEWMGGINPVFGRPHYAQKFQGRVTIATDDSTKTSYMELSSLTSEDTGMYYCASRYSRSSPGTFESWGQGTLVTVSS VL: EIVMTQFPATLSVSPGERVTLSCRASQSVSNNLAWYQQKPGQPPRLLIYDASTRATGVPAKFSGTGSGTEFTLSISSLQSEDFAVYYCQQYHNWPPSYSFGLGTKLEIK . Reported kon?
**Result** 511000

Value source: patent US20150086555A1
